Quick reference: inhibition of the listed items.
molecular target: Casein kinase I isoform gamma-3 (Homo sapiens) (UniProt Q9Y6M4); settings: at 1 µM;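 further: mean inhibition of CK1-g3, GSK PKIS screen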
Sequence (Q9Y6M4 whole entry, looked up, canonical isoform): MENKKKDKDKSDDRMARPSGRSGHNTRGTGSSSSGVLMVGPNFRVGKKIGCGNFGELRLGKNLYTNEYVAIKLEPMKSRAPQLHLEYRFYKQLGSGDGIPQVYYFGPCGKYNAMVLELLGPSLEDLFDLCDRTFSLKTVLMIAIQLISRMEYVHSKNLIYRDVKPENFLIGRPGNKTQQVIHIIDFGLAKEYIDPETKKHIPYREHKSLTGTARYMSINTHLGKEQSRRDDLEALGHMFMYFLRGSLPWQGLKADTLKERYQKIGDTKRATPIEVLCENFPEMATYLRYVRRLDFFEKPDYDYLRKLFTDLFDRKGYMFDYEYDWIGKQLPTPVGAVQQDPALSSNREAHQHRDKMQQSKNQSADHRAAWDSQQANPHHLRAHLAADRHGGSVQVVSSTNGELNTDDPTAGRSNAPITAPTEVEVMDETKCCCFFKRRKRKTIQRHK
Provide only the numeric value, understood in %.

- CN(c1ccc(NC(=O)Nc2ccc(OC(F)(F)F)cc2)cc1)c1ccnc(Nc2cccc(S(N)(=O)=O)c2)n1: 2.37
- OCc1ccc(-c2nc(-c3ccccn3)c(-c3ccc4c(c3)OCO4)[nH]2)cc1: 4.78
- N#Cc1cccc(Nc2nccc(-c3cnn4ncccc34)n2)c1: 43
- Cc1cc(O)cc(C)c1/C=C/c1cncc(C(=O)N(C)C)c1: -0.84
- NC(=O)c1sc(-n2cnc3ccccc32)cc1OCc1ccccc1Br: 3.56
- CCn1c(-c2nonc2N)nc2c(C#CC(C)(C)O)nc(OCCNC)cc21: 1.61
- O=S(=O)(CCOCc1ccc(-c2ccc3ncnc(Nc4ccc(OCc5cccc(F)c5)c(Cl)c4)c3c2)o1)c1ccccc1: 0.46
- CN(C)C(=O)O[C@H]1CN[C@H](C#Cc2cc3ncnc(Nc4ccc(OCc5cccc(F)c5)c(Cl)c4)c3s2)C1: 0.71
- c1ccc(Cc2nc3ccc(Nc4ncnc5ccccc45)cc3[nH]2)cc1: 5.53
- [O-][S+]1CCN(Cc2ccc(-c3ccc4ncnc(Nc5ccc(OCc6ccccc6)c(Cl)c5)c4c3)o2)CC1: 4.22

// map `COc1cc(Nc2nccc(-c3cnn4ncccc34)n2)cc(OC)c1` to recorded inhibition (system: Casein kinase I isoform gamma-3 (Homo sapiens) (UniProt Q9Y6M4)) 34.9

Form field - read-out: inhibition; system: Casein kinase I isoform gamma-3 (Homo sapiens) (UniProt Q9Y6M4); submitted item: `C[C@@H](Oc1cc(-n2cnc3ccc(OC[C@@H](O)CO)cc32)sc1C(N)=O)c1ccccc1Cl` 1.34

# get_value(readout= inhibition, system= Casein kinase I isoform gamma-3 (Homo sapiens) (UniProt Q9Y6M4)) for `c1ccc(Nc2ncc(-c3ccccc3)o2)cc1` 4.99

Entry `CS(=O)(=O)CCNCc1nc(-c2ccc3ncnc(Nc4ccc(OCc5cccc(C(F)(F)F)c5)cc4)c3c2)cs1` , system Casein kinase I isoform gamma-3 (Homo sapiens) (UniProt Q9Y6M4): what inhibition was measured? -0.03

Record `CC(C)c1ccc(Nc2nccc(-c3cnn4ncccc34)n2)cc1` : what is its inhibition with Casein kinase I isoform gamma-3 (Homo sapiens) (UniProt Q9Y6M4)? 13.6

* * *

target: RAF proto-oncogene serine/threonine-protein kinase (Homo sapiens) (UniProt P04049); conditions: at 0.1 µM;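 further: values are mean CRAF kinase inhibition from profiling of the GSK Published Kinase Inhibitor Set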
Sequence (P04049 whole entry): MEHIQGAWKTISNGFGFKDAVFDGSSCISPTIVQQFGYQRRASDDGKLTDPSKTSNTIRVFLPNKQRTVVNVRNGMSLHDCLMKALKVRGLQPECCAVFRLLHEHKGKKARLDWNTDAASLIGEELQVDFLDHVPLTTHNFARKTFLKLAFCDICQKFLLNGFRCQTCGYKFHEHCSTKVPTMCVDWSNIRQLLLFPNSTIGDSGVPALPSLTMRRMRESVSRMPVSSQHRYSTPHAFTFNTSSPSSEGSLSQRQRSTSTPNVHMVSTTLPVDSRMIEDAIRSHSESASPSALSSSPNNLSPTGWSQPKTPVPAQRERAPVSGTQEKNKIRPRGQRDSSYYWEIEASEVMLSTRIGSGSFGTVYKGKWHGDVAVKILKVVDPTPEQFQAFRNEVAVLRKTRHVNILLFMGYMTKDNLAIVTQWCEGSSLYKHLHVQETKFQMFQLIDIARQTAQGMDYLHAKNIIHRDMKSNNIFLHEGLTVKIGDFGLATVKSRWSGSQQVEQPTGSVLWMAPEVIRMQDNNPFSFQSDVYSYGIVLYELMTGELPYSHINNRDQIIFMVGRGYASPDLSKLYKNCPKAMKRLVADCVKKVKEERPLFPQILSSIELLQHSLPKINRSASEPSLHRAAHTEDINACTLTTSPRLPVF
propertyName: inhibition (%)
Output spec: scalar in %, unitless text.

Example results:
• CC(C)c1ccc(Nc2nccc(-c3cnn4ncccc34)n2)cc1 = 0.59
• CN(C)CCCn1c(-c2nonc2N)nc2cnccc21 = 7.16
• O=S(=O)(CCOCc1ccc(-c2ccc3ncnc(Nc4ccc(OCc5cccc(F)c5)c(Cl)c4)c3c2)o1)c1ccccc1 = -0.94
• CCCN1CCCC(c2ccc(Nc3nc(Nc4cc(F)ccc4C(N)=O)c4cc[nH]c4n3)c(OC)c2)C1 (stereo unspecified) = 1.24
• COc1cc2ncn(-c3cc(OCc4ccccc4S(C)(=O)=O)c(C#N)s3)c2cc1OC = 5.23
• NS(=O)(=O)c1ccc(N/N=C2\C(=O)Nc3ccc(Cl)cc32)cc1 = -0.52
• NS(=O)(=O)c1cccc(Nc2cc(-c3ccc(F)cc3)n[nH]2)c1 = 0.49
• c1ccc(Nc2ncc(-c3ccccc3)o2)cc1 = 2.39
• COC(=O)c1ccc2c(c1)C(=Cc1cc(Br)c(O)c(Br)c1)C(=O)N2 = 3.01
• FC(F)(F)c1ccc(-c2nn3ncccc3c2-c2ccnc(Nc3ccc4c(c3)OCCO4)n2)cc1 = -0.32

Now let's try a different one.
Sample `OCc1ccc(-c2nc(-c3ccccn3)c(-c3ccc4c(c3)OCO4)[nH]2)cc1` — what was its inhibition? -1.74

The measured values listed here are drawn from ChEMBL document CHEMBL1961873.
